target: Metallo-beta-lactamase type 2 (Bacteria); assay: Inhibition of NDM-1 (unknown origin) using nitrocefin as substrate incubated for 15 to 60 mins by absorption based analysis
Sequence (C7C422 whole entry): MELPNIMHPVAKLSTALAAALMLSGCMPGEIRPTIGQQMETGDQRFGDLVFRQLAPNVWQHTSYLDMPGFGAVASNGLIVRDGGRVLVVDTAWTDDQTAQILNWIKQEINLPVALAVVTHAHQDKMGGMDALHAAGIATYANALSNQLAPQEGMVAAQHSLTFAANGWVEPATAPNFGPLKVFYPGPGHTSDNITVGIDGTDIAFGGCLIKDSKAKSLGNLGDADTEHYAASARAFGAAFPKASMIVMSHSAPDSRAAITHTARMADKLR
pIC50: −log10 of the molar value.
outcome-measure: pIC50

chem-smiles: CS(=O)(=O)c1ccc(-n2[se]c3ccccc3c2=O)cc1
value-measured: 5.14

chem-smiles: CSc1nnc(-n2[se]c3ccccc3c2=O)s1
value-measured: 5.06

chem-smiles: COC(=O)c1ccc(-n2[se]c3ccccc3c2=O)cc1OC
value-measured: 5.11
